pIC50: −log10 of the molar value.
Acetyl-CoA carboxylase 1 (Rattus norvegicus, UniProt P11497) pIC50, compiled from various sources.
Outcome label depends on pIC50 relative to 7: at/above gives Condition met, below gives Condition not met.

Examples from the recorded data:
Cc1n[nH]c2c(C)cc(C(=O)N3CCC4(CC3)CC(=O)c3nn(C(C)C)cc3O4)cc12 ... Condition met
Cc1cc(C(=O)N2CCC3(CCN(C(=O)OC(C)C)C3)CC2)cc2cn[nH]c12 ... Condition not met
Cc1n[nH]c2c(C)cc(C(=O)N3CCC4(CC3)CC(=O)c3ncccc3O4)cc12 ... Condition not met
Cc1ccc2cc(CC3CCN(C(=O)c4cccc(-c5cn[nH]c5)c4)CC3)ccc2n1 ... Condition not met
Cc1cc2c(cc1C)C(=O)CC1(CCN(C(=O)c3cc(C)c4[nH]ncc4c3)CC1)O2 ... Condition met
Cc1cc(C(=O)N2CCC3(CCN(C(=O)OC(C)(C)C)CC3)C2)cc2cn[nH]c12 ... Condition not met

Exam item: Is the recorded value of pIC50 equal to or greater than 7 for this molecule? "Cc1cc(C(=O)N2CC3(CCN(C(=O)OC(C)(C)C)CC3)C2)cc2cn[nH]c12"
Marked response: Condition not met
